# System: LG0567-F671-PDC KRAS tumor spheroid viability;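 also: drug exposure lasted seven days after spheroids formed for three days; 100% = DMSO vehicle control viability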
# protocol-details: Anticancer human tumor LG0567-F671-PDC patient-derived lung adenocarcinoma cell line growth inhibition [KRAS2]
# condition-description: second compound 0.1 µM; first compound 0.1 µM; active compounds read low; spheroids with HUVEC and MSC
result-type: viability, T/C (%)
# number only, unit % dropped from output

Request the reported viability, T/C associated with CC(=O)OC12COC1CC(O)C1(C)C(=O)C(O)C3=C(C)C(OC(=O)C(O)C(NC(=O)OC(C)(C)C)c4ccccc4)CC(O)(C(OC(=O)c4ccccc4)C21)C3(C)C (stereo not given) + C=CC(=O)N1CCN(c2nc(=O)n(-c3c(C)ccnc3C(C)C)c3nc(-c4c(O)cccc4F)c(F)cc23)C(C)C1
14.2

CC1OCC2(CCN(c3cnc(Sc4ccnc(N)c4Cl)c(N)n3)CC2)C1N (stereo not given) + C=CC(=O)N1CCN(c2nc(OCC3CCCN3C)nc3c2CCN(c2cccc4cccc(C)c24)C3)CC1CC#N , same question.
14.6

CC(C)n1nc(-c2ccc3oc(N)nc3c2)c2c(N)ncnc21 + CC1OCC2(CCN(c3cnc(Sc4ccnc(N)c4Cl)c(N)n3)CC2)C1N , same question.
10.6
